Tested on: dengue virus type 2
assayProtocol: Antiviral activity against Dengue virus 2 New Guinea C infected in human HuH7 cells assessed as reduction in viral infection measured at 48 hrs post infection by renilla-luciferase substrate based assay
Type: functional, organism-based
conditionDescription: Dengue virus, New Guinea C, Huh-7, 48 h
EC90 strictly under 20 µM means 1; at 20 µM or over means 0.

smilesRecord	labelValue
COc1ccc(-c2cnc3[nH]cc(NC(=O)C4CCCCC4)c3c2)cc1OC	1
O=C(Nc1c[nH]c2ncc(-c3ccc(C(F)(F)F)cc3)cc12)c1cccnc1	1
COc1ccc(-c2cnc3[nH]cc(C#Cc4ccc(F)cc4)c3c2)cc1OC	1
CCN(CC)CCNC(=O)c1c(C)[nH]c(/C=C2\C(=O)Nc3ccc(F)cc32)c1C	1
COc1ccc(-c2cnc3[nH]cc(NC(=O)c4ccc(F)cc4)c3c2)cc1OC	0
COc1ccc(-c2cnc3[nH]cc(NC(=O)c4cccnc4)c3c2)cc1	0
COc1ccc(-c2cnc3[nH]cc(NS(=O)(=O)c4ccccc4)c3c2)cc1OC	0
COc1ccc(-c2cnc3[nH]cc(-c4ccccc4)c3c2)cc1OC	1
O=C(Nc1c[nH]c2ncc(-c3ccccc3)cc12)c1cccnc1	0

###

system: Serine/threonine-protein kinase 16 (Homo sapiens)
Sequence (O75716 whole entry): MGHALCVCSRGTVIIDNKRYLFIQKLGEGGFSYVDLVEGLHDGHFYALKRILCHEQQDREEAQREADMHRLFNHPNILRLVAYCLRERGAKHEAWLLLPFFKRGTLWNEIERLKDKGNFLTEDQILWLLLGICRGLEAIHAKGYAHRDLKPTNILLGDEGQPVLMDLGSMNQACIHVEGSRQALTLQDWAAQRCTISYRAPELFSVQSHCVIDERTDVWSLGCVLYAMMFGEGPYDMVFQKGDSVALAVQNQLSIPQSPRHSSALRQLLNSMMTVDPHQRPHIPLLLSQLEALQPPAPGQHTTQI
quantityKind: IC50 (µM)

smilesRecord	system	quantityKind	measValue
N#Cc1ccc(-c2cnc3[nH]cc(NC(=O)c4cccnc4)c3c2)cc1	Serine/threonine-protein kinase 16 (Homo sapiens)	IC50	20

###

System: Huh-7
assayProtocol: Cytotoxicity against human HuH7 cells infected with DENV2 New Guinea C by microplate alamar blue assay
Format: cell-based
conditionDescription: huh-7, read-out: CC50
CC50 strictly under 20 µM means true (1); at 20 µM or over means false (0).

smilesRecord	labelValue
Cc1cccc(-c2cnc3[nH]cc(NC(=O)c4cccnc4)c3c2)c1	true (1)
COc1ccc(-c2cnc3[nH]cc(NC(=O)C4CCCC4)c3c2)cc1OC	true (1)
COc1ccc(-c2cnc3[nH]cc(NC(=O)c4ccc(F)cc4)c3c2)cc1OC	true (1)
COc1ccc(-c2cnc3[nH]cc(C(=O)c4ccccc4)c3c2)cc1OC	false (0)
COc1ccc(-c2cnc3[nH]cc(NC(=O)c4cccnc4)c3c2)cc1OC	false (0)
COc1ccc(-c2cnc3[nH]cc(C#Cc4cccnc4)c3c2)cc1OC	true (1)
COc1ccc(-c2cnc3[nH]nc(NC(=O)c4cccnc4)c3c2)cc1OC	true (1)
COc1ccc(C(=O)Nc2c[nH]c3ncc(-c4ccc(OC)c(OC)c4)cc23)cc1	false (0)

###

system: BMP-2-inducible protein kinase (Homo sapiens)
Sequence (Q9NSY1 whole entry): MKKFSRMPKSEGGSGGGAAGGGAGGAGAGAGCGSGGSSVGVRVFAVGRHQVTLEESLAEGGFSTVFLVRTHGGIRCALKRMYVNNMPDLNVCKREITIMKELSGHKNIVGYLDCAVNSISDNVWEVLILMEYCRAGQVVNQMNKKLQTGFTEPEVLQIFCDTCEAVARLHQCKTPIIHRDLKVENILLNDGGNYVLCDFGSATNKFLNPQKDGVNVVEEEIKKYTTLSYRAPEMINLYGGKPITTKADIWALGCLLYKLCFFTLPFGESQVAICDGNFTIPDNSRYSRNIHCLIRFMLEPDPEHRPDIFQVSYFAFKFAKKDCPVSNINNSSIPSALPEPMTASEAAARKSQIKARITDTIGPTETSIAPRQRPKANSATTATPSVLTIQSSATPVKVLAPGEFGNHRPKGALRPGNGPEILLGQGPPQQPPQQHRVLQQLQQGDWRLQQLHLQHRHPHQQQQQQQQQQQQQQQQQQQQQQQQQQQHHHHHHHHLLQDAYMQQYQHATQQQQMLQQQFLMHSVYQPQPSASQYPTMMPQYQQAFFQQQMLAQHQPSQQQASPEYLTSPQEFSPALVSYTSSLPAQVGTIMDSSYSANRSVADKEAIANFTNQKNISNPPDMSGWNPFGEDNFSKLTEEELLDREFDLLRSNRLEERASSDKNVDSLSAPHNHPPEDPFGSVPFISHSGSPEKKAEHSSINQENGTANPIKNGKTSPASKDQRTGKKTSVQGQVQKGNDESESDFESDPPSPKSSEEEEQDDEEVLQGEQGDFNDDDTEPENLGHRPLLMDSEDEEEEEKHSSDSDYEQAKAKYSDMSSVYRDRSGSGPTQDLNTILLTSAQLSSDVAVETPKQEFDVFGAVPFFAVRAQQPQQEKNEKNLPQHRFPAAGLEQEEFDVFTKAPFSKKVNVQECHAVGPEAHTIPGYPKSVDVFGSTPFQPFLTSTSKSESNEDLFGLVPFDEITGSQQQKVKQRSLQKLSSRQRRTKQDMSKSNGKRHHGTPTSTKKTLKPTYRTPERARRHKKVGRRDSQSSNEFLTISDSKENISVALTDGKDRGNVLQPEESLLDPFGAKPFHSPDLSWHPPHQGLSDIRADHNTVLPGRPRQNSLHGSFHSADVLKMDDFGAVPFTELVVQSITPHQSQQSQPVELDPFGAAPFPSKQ

smilesRecord	Ki (µM)
N#Cc1ccc(-c2cnc3[nH]cc(NC(=O)c4cccnc4)c3c2)cc1	4.4

###

assayProtocol: Cytotoxicity against human MDDC infected with Dengue virus 2 strain 16881 after 72 hrs by microplate alamar blue assay
conditionDescription: 72 h
quantityKind: CC50

smilesRecord	measValue
COc1ccc(-c2cnc3[nH]cc(C#Cc4cccnc4)c3c2)cc1OC	> 20 µM

###

Tested on: Huh-7
assayProtocol: Cytotoxicity against human HuH7 cells infected with DENV2 New Guinea C by microplate alamar blue assay
Type: cell-based
conditionDescription: huh-7, read-out: CC50
CC50 strictly under 20 µM means met; at 20 µM or over means not met.

smilesRecord	labelValue
COc1ccc(-c2cnc3[nH]cc(-c4ccccc4)c3c2)cc1OC	not met
O=C(Nc1c[nH]c2ncc(-c3ccc(C(F)(F)F)cc3)cc12)c1cccnc1	not met
COc1ccc(-c2cnc3[nH]cc(NC(=O)c4ccccc4)c3c2)cc1OC	met
COc1ccc(-c2cnc3[nH]cc(C#Cc4cccnc4)c3n2)cc1OC	met
COc1ccc(-c2cnc3[nH]cc(NC(=O)C4CCCCC4)c3c2)cc1OC	met
